assay.comment: intrinsic fluorescence of library compounds, ex339/em460 – biochemical, MLSMR library, data from DPM-DC assay, artefact control, profiling panel (AID 709);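 also: signal is the first read of a kinetic run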
particulars: compound autofluorescence, ex339/em460 nm, NADH buffer; at 10 µM; 1 = no-compound wells, NADH background
About 3,600 (5.5%) of roughly 65,000 compounds were called active.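 The calls were made as follows: active = at 10 µM, mean starting fluorescence two-fold or more over control wells; inactive = the rest.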 This is one part of a sample in which actives are shown more often than they occur.
Outcomes: TRUE for active, FALSE for inactive

[
  {
    "compound": "COc1ccccc1-n1c(CNC(=O)c2ccccc2)nnc1SCC(=O)Nc1nnc(C)s1",
    "group": "FALSE"
  },
  {
    "compound": "Cc1ccc(C2c3c(oc4ccc(C)cc4c3=O)C(=O)N2CCCN2CCOCC2)cc1 (stereo not drawn)",
    "group": "FALSE"
  },
  {
    "compound": "Cc1cc2nc(-c3ccc(NC(=O)c4cccnc4)cc3)oc2cc1C",
    "group": "TRUE"
  },
  {
    "compound": "COc1ccc2c3c(c(=O)oc2c1OCC(=O)C(C)(C)C)CCCC3",
    "group": "TRUE"
  },
  {
    "compound": "Cc1c(C)c2cc3c4c(oc3c(C)c2oc1=O)CCCC4",
    "group": "FALSE"
  },
  {
    "compound": "Cn1c(=O)c2c(nc(CN3CCOCC3)n2Cc2ccccc2)n(C)c1=O",
    "group": "FALSE"
  },
  {
    "compound": "COCCNC(=O)CSc1nc2c(n1-c1ccccc1)CCCC2",
    "group": "FALSE"
  },
  {
    "compound": "CC1CCN(c2oc(-c3ccccc3F)nc2C#N)CC1",
    "group": "TRUE"
  },
  {
    "compound": "CCCOc1ccc2c3c(c(=O)oc2c1OCCC)CCC3",
    "group": "TRUE"
  },
  {
    "compound": "O=C(CC(NCCN1CCOCC1)C(=O)O)Nc1cccc(Cl)c1 (stereo not drawn)",
    "group": "FALSE"
  },
  {
    "compound": "Cc1cc(C)c2c(c1)cc(C)c1nnc(SCC(=O)Nc3cc(C)on3)n12",
    "group": "FALSE"
  },
  {
    "compound": "COc1ccc(-n2nc3c(c2NC(=O)Cc2cccc(C)c2)CS(=O)C3)cc1 (stereo not drawn)",
    "group": "FALSE"
  },
  {
    "compound": "CCOc1ccc2nc(NCCNS(=O)(=O)c3ccccc3)c(C#N)cc2c1",
    "group": "TRUE"
  },
  {
    "compound": "CCOc1ccc2cc(C#N)c(SCC(=O)OC)nc2c1",
    "group": "FALSE"
  },
  {
    "compound": "Cc1nc(SCC(=O)Nc2cc(C)on2)c2c(C)c(C)sc2n1",
    "group": "FALSE"
  },
  {
    "compound": "CCOC(=O)c1cc(NC(=O)c2cccnc2)cc(C(=O)OCC)c1",
    "group": "FALSE"
  },
  {
    "compound": "C=CCNC(=O)c1ccc(C)c(Br)c1",
    "group": "FALSE"
  },
  {
    "compound": "COc1ccc(Cl)cc1S(=O)(=O)N1CCN(CC(=O)C(C)(C)C)CC1",
    "group": "FALSE"
  },
  {
    "compound": "Cc1cccn2c(=O)c3cc(C#N)c(=NC(=O)c4cccnc4)n(CC4CCCO4)c3nc12 (stereo not drawn)",
    "group": "TRUE"
  },
  {
    "compound": "Cc1ccc2c(c1)N(CCCC(=O)NCc1cccnc1)C(=O)CO2",
    "group": "FALSE"
  },
  {
    "compound": "CCc1nnc(NC(=O)c2cccs2)s1",
    "group": "FALSE"
  },
  {
    "compound": "COc1cc(C(=O)Nc2nccs2)cc(OC)c1OC",
    "group": "FALSE"
  },
  {
    "compound": "Cc1ccc2nc(-c3ccc(SCC(=O)Nc4cc(C)on4)nc3)[nH]c2c1",
    "group": "TRUE"
  }
]
